- TEST SYSTEM: Amine oxidase [flavin-containing] A (Homo sapiens, UniProt P21397)
- Sequence (P21397 whole entry): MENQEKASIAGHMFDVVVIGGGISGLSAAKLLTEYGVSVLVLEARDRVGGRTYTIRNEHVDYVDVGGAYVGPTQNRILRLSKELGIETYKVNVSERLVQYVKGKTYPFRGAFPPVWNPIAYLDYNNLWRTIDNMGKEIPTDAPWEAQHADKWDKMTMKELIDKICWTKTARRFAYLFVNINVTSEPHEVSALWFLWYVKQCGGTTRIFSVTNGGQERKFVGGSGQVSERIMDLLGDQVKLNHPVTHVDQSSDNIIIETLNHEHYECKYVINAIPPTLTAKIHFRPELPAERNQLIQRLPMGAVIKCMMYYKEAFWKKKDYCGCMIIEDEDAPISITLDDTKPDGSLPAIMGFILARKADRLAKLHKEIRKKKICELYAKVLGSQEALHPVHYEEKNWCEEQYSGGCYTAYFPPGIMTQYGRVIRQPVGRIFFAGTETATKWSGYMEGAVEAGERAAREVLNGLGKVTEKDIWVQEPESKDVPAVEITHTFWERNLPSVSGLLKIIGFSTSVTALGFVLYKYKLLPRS
- METHOD DESCRIPTION: Inhibition of human recombinant MAO-A by multimode plate reader assay
MEASURE: pIC50
Please treat pIC50 as minus the base-10 logarithm of the molar concentration.

A selection of reference data follows.
GET /values?readout=pIC50&item= CCN(CCCCCCOc1ccc(C(=O)/C=C/c2ccc(N(C)C)cc2)c(O)c1)Cc1ccc(N(C)C)cc1
4.27

Value lookup for pIC50; key = CCN(CCCCCCOc1ccc(C(=O)/C=C/c2ccc(N(C)C)cc2)c(O)c1)Cc1ccccc1N(C)C
4.42

What does the record list as pIC50 for CCN(CCCCOc1ccc(C(=O)/C=C/c2ccc(N(C)C)cc2)c(O)c1)Cc1ccccc1OC ?
4.56

# query: pIC50 of entry CCN(CCCCOc1ccc(C(=O)/C=C/c2ccc(N(C)C)cc2)c(O)c1)Cc1ccccc1
4.11

What does the record list as pIC50 for CCN(CCCOc1ccc(C(=O)/C=C/c2ccc(N(C)C)cc2)c(O)c1)Cc1ccccc1OC ?
4.58

Entry CCN(CCCCOc1ccc(C(=O)/C=C/c2ccc(N(C)C)cc2)c(O)c1)Cc1ccccc1N(C)C has what pIC50?
4.74

# input compound: CN(C)c1ccc(/C=C/C(=O)c2ccc(N(C)C)cc2O)cc1 ; wanted: its pIC50
4.32

Tell me the measured pIC50 of COc1ccc(/C=C/C(=O)c2ccc(N(C)C)cc2O)cc1 , please.
4.37

Fill in: pIC50 of CCN(CCCCCCOc1ccc(C(=O)/C=C/c2ccc(N(C)C)cc2)c(O)c1)Cc1ccccc1 is ___
4.50

Could you now look at the following compound, please?
Returns the measured pIC50 for the input compound. Input: CCN(CCCOc1ccc(C(=O)/C=C/c2ccccc2)c(O)c1)Cc1ccccc1N(C)C
4.17

====

- METHOD DESCRIPTION: Permeability of the compound by PAMPA
- Format: ADME
- CONDITIONS USED: read-out: permeability
MEASURE: Papp (×10⁻⁶ cm/s)
Kindly provide the numeric value in ×10⁻⁶ cm/s only, without the unit symbol.

Returns the measured Papp for the input compound. Input: CCN(CCCCOc1ccc(C(=O)/C=C/c2ccc(N(C)C)cc2)c(O)c1)Cc1ccccc1N(C)C
13.4
